These data points were gathered from the supplement of paper PMC3334620.

Biological target: Ylr278c (UniProt Q05854)
Sequence (Q05854 whole entry): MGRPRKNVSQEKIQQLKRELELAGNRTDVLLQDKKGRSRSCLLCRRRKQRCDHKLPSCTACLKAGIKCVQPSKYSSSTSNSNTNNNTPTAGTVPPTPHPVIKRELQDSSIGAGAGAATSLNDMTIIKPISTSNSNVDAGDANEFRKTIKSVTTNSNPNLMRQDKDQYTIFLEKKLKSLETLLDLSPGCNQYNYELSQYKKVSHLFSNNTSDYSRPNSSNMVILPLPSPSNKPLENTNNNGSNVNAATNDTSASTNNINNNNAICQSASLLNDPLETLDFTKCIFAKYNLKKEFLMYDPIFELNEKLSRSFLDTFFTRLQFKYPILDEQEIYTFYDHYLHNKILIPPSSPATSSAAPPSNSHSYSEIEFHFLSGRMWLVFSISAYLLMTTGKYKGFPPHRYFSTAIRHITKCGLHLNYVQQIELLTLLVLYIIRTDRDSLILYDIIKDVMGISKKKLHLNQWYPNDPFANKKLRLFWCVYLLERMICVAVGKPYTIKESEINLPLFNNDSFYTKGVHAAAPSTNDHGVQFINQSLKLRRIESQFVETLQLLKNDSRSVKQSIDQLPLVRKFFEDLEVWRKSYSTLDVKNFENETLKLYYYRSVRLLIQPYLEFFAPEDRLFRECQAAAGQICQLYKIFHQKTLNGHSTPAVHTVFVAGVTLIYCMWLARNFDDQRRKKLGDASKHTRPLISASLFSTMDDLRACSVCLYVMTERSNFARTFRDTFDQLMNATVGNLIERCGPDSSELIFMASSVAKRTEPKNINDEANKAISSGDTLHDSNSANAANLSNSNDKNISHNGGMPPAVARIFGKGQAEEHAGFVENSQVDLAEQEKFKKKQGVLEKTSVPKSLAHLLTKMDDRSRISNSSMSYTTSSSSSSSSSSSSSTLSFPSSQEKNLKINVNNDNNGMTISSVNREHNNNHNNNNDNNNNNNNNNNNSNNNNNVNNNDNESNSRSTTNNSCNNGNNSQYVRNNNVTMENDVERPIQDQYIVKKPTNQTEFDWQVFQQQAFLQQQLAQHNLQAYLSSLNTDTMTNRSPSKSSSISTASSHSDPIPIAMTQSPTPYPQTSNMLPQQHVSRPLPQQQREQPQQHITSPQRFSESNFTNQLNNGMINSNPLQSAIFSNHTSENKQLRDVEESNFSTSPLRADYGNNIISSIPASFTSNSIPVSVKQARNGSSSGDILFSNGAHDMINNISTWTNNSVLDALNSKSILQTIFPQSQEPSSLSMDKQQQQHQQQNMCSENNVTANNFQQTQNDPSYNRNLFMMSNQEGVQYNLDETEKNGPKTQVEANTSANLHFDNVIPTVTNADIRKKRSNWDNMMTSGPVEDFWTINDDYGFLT
Test: PBM E-score (8-mer binding enrichment) (E-score (-0.5 to 0.5)); higher = stronger / more preferred TF binding
Settings: protein concentration: 200 nM; construct: GST-DNA-binding domain
Whole data set: some 33,000 sequences, median “E-score (-0.5 to 0.5)” near -0.054, cut for the highest 2% near 0.39. For the sample, the highest values were picked, then their nearest neighbours and some sequences at random.
Quick rule: PBM E-score of at least 0.08 means 1, below that means 0.

Worked examples, 5 sequences total:
Primary sequence	Classification
AACCCGGC	1
GCCTATAA	0
TAACTTGA	0
AACCCGGT	1
CGGATCCC	1

Data request: Exam item: decide whether the reported PBM E-score for GACCCGGC is at least 0.08.
Data returned: 1

Data request: Decide: PBM E-score of ACCTCTGA >= 0.08?
Data returned: 0

Data request: Please tell me: is the sequence ACTTTGCT at or over 0.08 in terms of PBM E-score?
Data returned: 0

Data request: PBM E-score >= 0.08 for AGGATCCC ?
Data returned: 1

Data request: Is the recorded value of PBM E-score equal to or greater than 0.08 for this sequence? AAATGGTT
Data returned: 0

Data request: Hello, I need to know if TACCCGTA has measured PBM E-score not below 0.08. Thanks!
Data returned: 0

Data request: Please tell me: is the sequence CGGATCCA at or over 0.08 in terms of PBM E-score?
Data returned: 1
